Tested on: RAW-Dual (murine macrophage reporter line)
Experiment: NF-kB reporter (SEAP) activity fold change vs agonist alone; higher = enhanced NF-kB activity
Details: modulator concentration 10 µM; agonist: CpG ODN 1826 0.5 ug/mL
We begin with a simple list: items and their reported NF-kB reporter.
Form field (numeric): enter value without unit.

# count of solved cases: 5
compound: COc1ccc(OC)c(Nc2nc(-c3c(C)nc4ncccn34)cs2)c1
tgt: RAW-Dual (murine macrophage reporter line)
NF-kB reporter: 2.14
//
compound: O=c1c2ccccc2n(Cc2nc(-c3ccc(F)c(F)c3)no2)c(=O)n1C1CC1
tgt: RAW-Dual (murine macrophage reporter line)
NF-kB reporter: 0.84
//
compound: CCC(=O)N1CCCC1c1nc2ccccc2n1CCOc1ccc(Cl)cc1 (configuration not stated)
tgt: RAW-Dual (murine macrophage reporter line)
NF-kB reporter: 0.717
//
compound: Cc1ccc(-n2nc(C(C)(C)C)cc2NC(=O)Nc2ccc(OCCN3CCOCC3)c3ccccc23)cc1
tgt: RAW-Dual (murine macrophage reporter line)
NF-kB reporter: 0.68
//
compound: CC(N)C12CC3CC(CC(C3)C1)C2.Cl (configuration not stated)
tgt: RAW-Dual (murine macrophage reporter line)
NF-kB reporter: 0.598

Which NF-kB reporter value is on record for `Cc1oncc1C(=O)NCc1cc(C2CC2)n(C)n1` ?
0.927

NF-kB reporter for `Cc1cc(/C=C/C#N)cc(C)c1Nc1ccnc(Nc2ccc(C#N)cc2)n1` ?
0.602

* * *

System: RAW-Dual (murine macrophage reporter line)
Assay: viability score (confluency relative to resting cells, overnight) (fraction); higher = more viable, active = viable (0.7 or more)
Settings: modulator concentration 10 µM
Field 'call' accepts y (active), n (inactive)

Worked examples, 5 compounds total:
compound: O=C(Nc1ccc([N+](=O)[O-])cc1)Nc1ccc(Cl)cn1
assigned_label: y
//
compound: COc1cccc2c1C(=O)c1c(O)c3c(c(O)c1C2=O)C[C@@](O)(C(C)=O)C[C@@H]3O[C@H]1C[C@H](N)[C@H](O)[C@H](C)O1
assigned_label: n
//
compound: Cl.Cl.Clc1ccc(Nc2nnc(Cc3ccncc3)c3ccccc23)cc1
assigned_label: y
//
compound: O=C(c1cc2ccccc2o1)N1CC(N2C(=O)CCC2=O)C1
assigned_label: y
//
compound: CSCCC(NC(C)=O)C(=O)NC1CCN(c2nc(C)nc3c2CCCC3)CC1 (stereo not given)
assigned_label: y

Hey, what did the test say about `O=C(O)CCCNCP(=O)(O)CCc1ccccc1` ?
y

For CCC(C(=O)NCc1ccnc(-c2ccncc2)c1)c1ccccc1 (stereo not given) , what call appears in the results of this test?
y

Would you mind telling me which call this test gave `CCOc1ccccc1OCCCCOc1ccc(I)cc1` ?
y

GET /call?item= `c1ccc(CC(=NNc2ccccc2)c2ccc(-c3ccccc3)cc2)cc1` returns the recorded outcome of this test.
y

Give the logged outcome of this assay for the following compound: `CCc1cc(=O)oc2cc(OCC(=O)OC(C)C)ccc12`
y

* * *

System: RAW-Dual (murine macrophage reporter line)
Assay: viability score (confluency relative to resting cells, overnight) (fraction); higher = more viable, active = viable (0.7 or more)
Settings: modulator concentration 10 µM
Parameter call: string, one of active, inactive

Before answering, review these 8 worked examples.
compound: COc1ccc(CNCc2cccc(C(F)(F)F)c2)cc1
tgt: RAW-Dual (murine macrophage reporter line)
assigned_label: inactive

compound: N[C@@H](CSCCCO)C(=O)O
tgt: RAW-Dual (murine macrophage reporter line)
assigned_label: active

compound: Br.O=S(=O)(c1ccc(-c2csc(Nc3ccc(Br)cc3)n2)cc1)N1CCCCC1
tgt: RAW-Dual (murine macrophage reporter line)
assigned_label: active

compound: Cc1cc(C(O)CNC(=O)c2ccc(C(F)(F)F)nc2)c(C)o1 (stereo unspecified)
tgt: RAW-Dual (murine macrophage reporter line)
assigned_label: active

compound: COc1ccc(C(NC(=O)c2ccccc2F)c2ccc(OC)cc2)cc1
tgt: RAW-Dual (murine macrophage reporter line)
assigned_label: active

compound: Cl.NC1=NCC2c3ccccc3Cc3ccccc3N12 (stereo unspecified)
tgt: RAW-Dual (murine macrophage reporter line)
assigned_label: active

compound: Oc1ccccc1-c1cc(C(F)(F)F)on1
tgt: RAW-Dual (murine macrophage reporter line)
assigned_label: inactive

compound: Cc1cc(O)c(C(C)C)cc1NC(=O)c1cc(C(C)(C)C)oc1C
tgt: RAW-Dual (murine macrophage reporter line)
assigned_label: active

Dear colleague, could you share the recorded outcome for COC(=O)CNC(c1ccccc1)c1cc(Br)ccc1NC(=O)c1ccccc1Br (stereo unspecified) when you have a moment?
active

Tell me the assay call for `Cc1cc(Nc2cc(N3CCN(C)CC3)nc(Sc3ccc(NC(=O)C4CC4)cc3)n2)n[nH]1` please.
active

Which outcome was entered for the compound `CS(=O)(=O)N1CC(C(=O)N2CCN(c3cccc(Cl)c3Cl)CC2)C1` in this test?
active

* * *

Listed here are compounds together with their documented IRF reporter.
System: RAW-Dual (murine macrophage reporter line)
Test: IRF reporter (Lucia luciferase) activity fold change vs agonist alone; higher = enhanced IRF activity
Conditions: modulator concentration 10 µM; agonist: MPLA […]

Record excerpt, results attached:
compound: Cc1ccc(C)c(C(=O)c2ccccc2NC(=O)c2ccccn2)c1
tgt: RAW-Dual (murine macrophage reporter line)
reported_result: 1.11
--
compound: NC(CO)(CO)CO.O=C(c1ccccc1)c1ccc2n1CCC2C(=O)O (stereo not given)
tgt: RAW-Dual (murine macrophage reporter line)
reported_result: 1.15
--
compound: N[C@@H](CC(=O)N1CCn2c(nnc2C(F)(F)F)C1)Cc1cc(F)c(F)cc1F
tgt: RAW-Dual (murine macrophage reporter line)
reported_result: 1.1

Entry under review: `Cc1cc(CNS(=O)(=O)Cc2ccc(C(F)(F)F)cc2)c(C)o1` . Reported IRF reporter?
1.37

Returns the measured IRF reporter for the input compound. Input: `CC(C)c1noc(CN2CCC(n3nc(C(F)(F)F)n(C)c3=O)CC2)n1`
1.15

* * *

System: RAW-Dual (murine macrophage reporter line)
Assay: NF-kB reporter (SEAP) activity fold change vs agonist alone; higher = enhanced NF-kB activity
Settings: modulator concentration 10 µM; agonist: CpG ODN 1826 0.5 ug/mL
Classes (NF-kB reporter): bin A: < 0.8; bin B: ≥ 0.8 and < 1; bin C: ≥ 1

molecule: COCCNCCOc1ccccc1C(C)C
assigned_label: bin A

molecule: CCN1CC(CCN2CCOCC2)C(c2ccccc2)(c2ccccc2)C1=O (stereo unspecified)
assigned_label: bin C

molecule: O=C(NCCN1CCN(c2ccc(Cl)cc2)CC1)c1ccno1
assigned_label: bin B

molecule: COc1cc2ncnc(Nc3ccc(F)c(Cl)c3)c2cc1NC(=O)/C=C/CN1CCCCC1
assigned_label: bin A

molecule: Clc1cccc(C=Cc2nn3c(Cc4ccccc4)nnc3s2)c1
assigned_label: bin B

molecule: CCCCN(Cc1ccccc1)C(=O)C1CCN(Cc2c(F)cccc2Cl)CC1
assigned_label: bin A

molecule: CCOc1nc2cccc(C(=O)O)c2n1Cc1ccc(-c2ccccc2-c2nn[nH]n2)cc1
assigned_label: bin C

molecule: CN(C)[C@@H]1C(O)=C(C(N)=O)C(=O)[C@@]2(O)C(O)=C3C(=O)c4c(O)ccc(Cl)c4[C@@H](O)[C@H]3C[C@@H]12.Cl
assigned_label: bin C

In the following, a different molecule is considered.
Pick a category. Item: `CCC(=O)c1ccc(N2CCCCCC2)c(F)c1`
bin B

* * *

The reader will find reported NF-kB reporter values listed item by item below.
Tested on: RAW-Dual (murine macrophage reporter line)
Assay: NF-kB reporter (SEAP) activity fold change vs agonist alone; higher = enhanced NF-kB activity
Settings: modulator concentration 10 µM; agonist: LPS 0.1 ug/mL
# respond with the number and nothing more

compound: O=C(Nc1cccc(Cl)c1Cl)c1cc2nc(-c3ccco3)cc(C(F)(F)F)n2n1
tgt: RAW-Dual (murine macrophage reporter line)
NF-kB reporter: 1.01

compound: Cc1ccc(OCC(O)CN2CCCCC2)c(C)c1.Cl (centres undefined)
tgt: RAW-Dual (murine macrophage reporter line)
NF-kB reporter: 1.05

compound: CNC(=O)[C@H](Cc1c[nH]c2ccccc12)NC(=O)[C@@H](CC(=O)NO)CC(C)C
tgt: RAW-Dual (murine macrophage reporter line)
NF-kB reporter: 1.33

compound: COc1cc2c(cc1OC)CN(CCc1ccc(NC(=O)c3cccc4c(=O)c5cccc(OC)c5[nH]c34)cc1)CC2
tgt: RAW-Dual (murine macrophage reporter line)
NF-kB reporter: 1.43

compound: COC(=O)C1=CN(CC2CCCO2)C=C(C(=O)OC)C1c1ccc(Cl)cc1 (centres undefined)
tgt: RAW-Dual (murine macrophage reporter line)
NF-kB reporter: 0.992

compound: CN(C)CCN(Cc1ccccc1)Cc1cccc(Cl)c1
tgt: RAW-Dual (murine macrophage reporter line)
NF-kB reporter: 0.928

compound: CNc1ccc([N+](=O)[O-])cc1-n1cnc(-c2ccc([N+](=O)[O-])cc2)c1
tgt: RAW-Dual (murine macrophage reporter line)
NF-kB reporter: 0.807

compound: CCc1cc(=O)oc2cc(OCC(=O)OC(C)C)ccc12
tgt: RAW-Dual (murine macrophage reporter line)
NF-kB reporter: 0.857

--- query ---
Need NF-kB reporter, item `O=C(CSc1nnnn1-c1ccccc1)NC12CC3CC(CC(C3)C1)C2`
0.967
